# Uptake, 293 Cells Stably Expressing FATP4 values compiled below
- target desc: hsFATP4 (Homo sapiens, UniProt Q6P1M0)
- Construct: expressed in transfected cells; host or cells: 293 cells (human kidney), stably transfected with pIRES-neo-hsFATP4, G418-selected
- Sequence (Q6P1M0 whole entry): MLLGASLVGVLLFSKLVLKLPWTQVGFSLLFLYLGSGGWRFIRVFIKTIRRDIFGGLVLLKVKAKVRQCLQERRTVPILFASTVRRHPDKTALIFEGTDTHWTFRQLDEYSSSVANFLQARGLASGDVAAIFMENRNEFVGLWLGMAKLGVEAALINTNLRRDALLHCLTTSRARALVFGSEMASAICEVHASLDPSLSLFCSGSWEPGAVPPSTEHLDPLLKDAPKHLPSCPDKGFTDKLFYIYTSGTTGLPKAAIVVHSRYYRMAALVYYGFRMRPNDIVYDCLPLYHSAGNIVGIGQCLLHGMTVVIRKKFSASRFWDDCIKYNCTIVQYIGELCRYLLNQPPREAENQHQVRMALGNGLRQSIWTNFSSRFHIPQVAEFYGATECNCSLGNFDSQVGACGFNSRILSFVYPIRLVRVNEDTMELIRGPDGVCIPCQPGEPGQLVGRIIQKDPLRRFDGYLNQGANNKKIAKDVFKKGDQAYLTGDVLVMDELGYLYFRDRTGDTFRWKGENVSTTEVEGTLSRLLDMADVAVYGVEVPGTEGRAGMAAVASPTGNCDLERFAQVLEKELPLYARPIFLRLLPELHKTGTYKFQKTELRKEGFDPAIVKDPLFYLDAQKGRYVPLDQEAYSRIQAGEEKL
- assay notes: Uptake of radiolabeled substrates by 293 cells stably expressing FATP4
- Format: cell-based
- condition info: 10 μM substrate in HBS with 5 mM taurocholate; rate over 4 min
- Procedure: Using a mammalian expression vector, we generated 40 stable […] cell lines expressing hsFATP4 and 20 cell lines transfected with a control plasmid. Several of the cell lines with the highest amount of Bodipy-FA uptake as well as isolated primary enterocytes were used to measure the uptake of radiolabeled FAs. Bodipy-FA uptake assays using FACS were performed, adapted to a 96-well format. […] Incorporated oleate was then determined by β-scintillation counting (Beckman).
Give just the numeric value; pmol/min 10^6 cells need not be written.

CC(C)CCC[C@@H](C)[C@H]1CC[C@H]2[C@@H]3CC=C4C[C@@H](O)CC[C@]4(C)[C@H]3CC[C@]12C [Cholesterol] : 345
CCCCCCCCCCCCCCCC(=O)O [Palmitate, Palmitic Acid] : 1695
CCCCCCCC(=O)O [Octanoate, Caprylic Acid] : 0
CCCCCCCC/C=C\CCCCCCCC(=O)O [Oleate, Oleic Acid] : 1122

Next, consider the following molecule.
Notebook entry, hsFATP4 (Homo sapiens, UniProt Q6P1M0) assay: Uptake, 293 Cells Stably Expressing FATP4 of CCCCC/C=C\C/C=C\CCCCCCCC(=O)O [Linolate, Linoleic Acid] = ?
673

Reference source: patent US7033772B1
